System: Aedes aegypti larvae
Assay: larval motility relative to same well at 0 h (fraction); higher = more motile (less active compound), active = 0.4 or less
Settings: 10 µM; 2 h
Reported larval motility values for the following compounds.

compound: FC(F)(F)Oc1ccc(Nc2ccc3cccc(Cl)c3n2)cc1
assayed_target: Aedes aegypti larvae
larval motility: 0.563
--
compound: CCCC(=O)OCCc1ccccc1
assayed_target: Aedes aegypti larvae
larval motility: 0.51
--
compound: O=S(=O)(Nc1ccc(O)cc1)c1cccc2cccnc12
assayed_target: Aedes aegypti larvae
larval motility: 1.06
--
compound: COc1ccc(C)cc1NC(=O)c1ccc(S(=O)(=O)N2CCCCC2)cc1
assayed_target: Aedes aegypti larvae
larval motility: 1.12
--
compound: Nc1nc(C(F)(F)F)cc2c1[nH]c(=O)n2Cc1ccccc1
assayed_target: Aedes aegypti larvae
larval motility: 0.857
--
compound: N[C@@H]1CN(c2c(F)cc3c(=O)c(C(=O)O)cn([C@@H]4C[C@@H]4F)c3c2Cl)CC12CC2
assayed_target: Aedes aegypti larvae
larval motility: 0.745
--
compound: C[C@H](c1cccc2ccccc12)N(C)Cc1ccccc1
assayed_target: Aedes aegypti larvae
larval motility: 1.02
--
compound: O=c1cc(Nc2ccc3ccccc3c2)[nH]c(=O)[nH]1
assayed_target: Aedes aegypti larvae
larval motility: 0.528
--
compound: NC(=O)c1ccc(I)c([N+](=O)[O-])c1
assayed_target: Aedes aegypti larvae
larval motility: 0.749
--
compound: CC[C@H](NC(=O)[C@H](C)NC)C(=O)N1C[C@@H](O)C[C@H]1Cc1c(-c2[nH]c3cc(F)ccc3c2C[C@@H]2C[C@H](O)CN2C(=O)[C@H](CC)NC(=O)[C@H](C)NC)[nH]c2cc(F)ccc12
assayed_target: Aedes aegypti larvae
larval motility: 0.407
--
compound: CC(C)n1cnc2c(NCc3ccccc3)nc(NCc3ccccc3)nc21
assayed_target: Aedes aegypti larvae
larval motility: 1.3
--
compound: CC[C@@]1(O)C(=O)OCc2c1cc1n(c2=O)Cc2cc3c([N+](=O)[O-])cccc3nc2-1
assayed_target: Aedes aegypti larvae
larval motility: 0.324
--
compound: COc1cc(NCc2ccc3nc(N)nc(N)c3c2C)cc(OC)c1OC
assayed_target: Aedes aegypti larvae
larval motility: 0.5
--
compound: COc1ccc(NC(=O)CC2Sc3ncnn3C2=O)cc1 (stereo not drawn)
assayed_target: Aedes aegypti larvae
larval motility: 0.728
--
compound: COc1ccc(NC(=O)c2cc3ccccn3n2)cc1
assayed_target: Aedes aegypti larvae
larval motility: 0.48
--
compound: O=C1NC(=S)N/C1=C\c1cc(Br)cc(Br)c1O
assayed_target: Aedes aegypti larvae
larval motility: 0.761
--
compound: NC(=O)c1c(N)sc2c1CCCCC2
assayed_target: Aedes aegypti larvae
larval motility: 0.947
--
compound: NC1C2CC3CC(C2)CC1C3 (stereo not drawn)
assayed_target: Aedes aegypti larvae
larval motility: 0.973
--
compound: COc1nc2ccc(Br)cc2cc1[C@@H](c1ccccc1)[C@@](O)(CCN(C)C)c1cccc2ccccc12
assayed_target: Aedes aegypti larvae
larval motility: 0.838
--
compound: C=C(C)n1c(=O)n(Cc2ccccc2C)c2ccccc21
assayed_target: Aedes aegypti larvae
larval motility: 1.39
--
compound: CC[C@H](CO)Nc1nc(NCc2ccccc2)c2ncn(C(C)C)c2n1
assayed_target: Aedes aegypti larvae
larval motility: 0.799
--
compound: NCC(=O)Nc1ccc(-n2nc(C(F)(F)F)cc2-c2ccc3c(ccc4ccccc43)c2)cc1
assayed_target: Aedes aegypti larvae
larval motility: 0.799
--
compound: CC1CN(c2ncnc3c2c(-c2ccccc2)cn3-c2ccc(F)cc2)CC(C)O1 (stereo not drawn)
assayed_target: Aedes aegypti larvae
larval motility: 0.791
--
compound: C=CCc1cc(Cc2cnc(N)nc2N)cc(OC)c1O
assayed_target: Aedes aegypti larvae
larval motility: 1.05
--
compound: CCOc1ccc(C(=O)NCCc2ccccc2)cc1
assayed_target: Aedes aegypti larvae
larval motility: 1.05
--
compound: COc1ccccc1NC(=O)c1ccccc1Sc1ccc([N+](=O)[O-])cc1
assayed_target: Aedes aegypti larvae
larval motility: 0.911
--
compound: CCCCN1C[C@H](O)[C@@H](O)[C@H](O)[C@H]1CO
assayed_target: Aedes aegypti larvae
larval motility: 0.87
--
compound: CC(=O)NC[C@H]1CN(c2ccc(N3CCSCC3)c(F)c2)C(=O)O1
assayed_target: Aedes aegypti larvae
larval motility: 0.531
--
compound: COc1cc(C(C(=O)NC2CCCCC2)N(C(=O)Cc2c[nH]c3ccccc23)c2ccc(C(C)C)cc2)cc(OC)c1OC (stereo not drawn)
assayed_target: Aedes aegypti larvae
larval motility: 1.42
--
compound: COc1cc(C2C3=C(CC(C)(C)CC3=O)Nc3ccccc3N2C(C)=O)ccc1OCc1ccccc1 (stereo not drawn)
assayed_target: Aedes aegypti larvae
larval motility: 0.542
--
compound: O=C(/C(=C/c1ccc(Cl)cc1Cl)n1ccnc1)c1ccc(Cl)cc1
assayed_target: Aedes aegypti larvae
larval motility: 0.446
--
compound: Fc1ccc(-c2nc(-c3c[nH]c4ccc(Br)cc34)[nH]c2-c2ccc(F)cc2)cc1
assayed_target: Aedes aegypti larvae
larval motility: 0.737
--
compound: C[C@H]1COc2c(N3CCN(C)CC3)c(F)cc3c(=O)c(C(=O)O)cn1c23
assayed_target: Aedes aegypti larvae
larval motility: 0.447
--
compound: CC[C@H]1OC(=O)[C@H](C)[C@@H](O[C@H]2C[C@@](C)(OC)[C@@H](O)[C@H](C)O2)[C@H](C)[C@@H](O[C@@H]2O[C@H](C)C[C@H](N(C)C)[C@H]2O)[C@](C)(O)C[C@@H](C)C(=O)[C@H](C)[C@@H](O)[C@]1(C)O
assayed_target: Aedes aegypti larvae
larval motility: 1.03
--
compound: O=C(Nc1[nH]c(=O)ncc1F)c1ccccc1
assayed_target: Aedes aegypti larvae
larval motility: 0.527
--
compound: CCCCC(CC)CNC(=N)NC(=N)NCCCCCCNC(=N)NC(=N)NCC(CC)CCCC (stereo not drawn)
assayed_target: Aedes aegypti larvae
larval motility: 0.646
--
compound: O=C(O)c1ccc(-c2ccc(O[C@H]3O[C@H](CO)[C@@H](O)[C@H](O)[C@@H]3O)cc2)cc1
assayed_target: Aedes aegypti larvae
larval motility: 0.798
--
compound: Cc1cc(CCCOc2c(C)cc(-c3noc(C(F)(F)F)n3)cc2C)on1
assayed_target: Aedes aegypti larvae
larval motility: 1.46
